Biological target: T1, Centromere B (UniProt P07199)
T1 sequence (looked up): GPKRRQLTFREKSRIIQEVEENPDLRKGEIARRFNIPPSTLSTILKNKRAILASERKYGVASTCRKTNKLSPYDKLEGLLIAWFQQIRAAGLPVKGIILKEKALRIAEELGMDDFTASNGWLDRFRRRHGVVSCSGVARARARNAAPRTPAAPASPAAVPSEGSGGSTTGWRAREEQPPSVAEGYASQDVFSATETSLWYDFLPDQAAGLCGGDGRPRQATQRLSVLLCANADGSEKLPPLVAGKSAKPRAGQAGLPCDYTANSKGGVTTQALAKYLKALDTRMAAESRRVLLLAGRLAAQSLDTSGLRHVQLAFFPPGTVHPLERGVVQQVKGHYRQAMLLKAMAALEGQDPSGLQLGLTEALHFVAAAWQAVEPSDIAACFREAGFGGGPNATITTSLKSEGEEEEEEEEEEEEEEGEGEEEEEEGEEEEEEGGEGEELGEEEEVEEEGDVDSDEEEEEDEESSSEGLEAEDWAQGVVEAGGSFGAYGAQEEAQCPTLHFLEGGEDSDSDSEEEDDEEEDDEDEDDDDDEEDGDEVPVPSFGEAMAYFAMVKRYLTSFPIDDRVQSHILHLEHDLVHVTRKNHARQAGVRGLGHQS
Test: AtheNA, Ab 12.5 ug/ml
METRIC_NAME: Athena reading (relative luminescence units)

BINDER | MEAS_VALUE
CH235_4A (antibody, from a related filing, V domains shown) VH: QVQLVQSGAEVKKPGASVTVSCQASGYTFTNYYVHWVRQAPGQGLQLMGWIDPSWGRTNYAQNFQGRITMTRDTSTSTVYMEMRSLRSEDTAVYYCARNVATEGSLLHYDYWGQGTLVTVSA VL: EIVLTQSPATLSVSPGERATLSCRASQSVRSNLAWYQQRPGQAPRLLIYGTSTRATGVPARFSGRGSGTEFTLAISSMQSEDFAVYLCLQYNNWWTFGQGTKVEIK | 5
